The values you see were collected from the supplement of paper PMC9170038.

tested on: K4 kissing-loop RNA reporter; experiment: apparent KD of K4 kissing-loop reporter; higher = weaker reporter binding; details: Eterna round: R107; input ligand: tryptophan 2.4 mM;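 further: bound reporter read as fluorescence of individual clusters on recovered sequencing chips by microscopy, with normalized cluster intensities fitted with a binding model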
Values of apparent KD of K4 kissing-loop reporter greater than or equal to 200 nM map to yes (1); values below map to no (0).

Below, 3 sequences whose answers are already recorded.
>>> answer_label("GAUUGUGAUGGAAACAUCGCAAUCUCUGAAGGAGCGCGUGAAAACGCAGGUAGGUCGCAGGACGACUAUGACAGUGAUGUUGUCG [Ex Arginine A K4 3]")
"no (0)"
>>> answer_label("UAGUAGCUCUCGGCCGCCACUCCUCAGUGAUGUUGAGAUAUUAAGAGCCAAUUGGCUCAUAUAAAGAGGACCGGGAGAGCUACAU [AK4.2 SS Tryptophan B]")
"no (0)"
>>> answer_label("UUCAGUGAUGUUGAACACUGUUGUAUAAACUAGGAUAUGCUGAUAAGCAGAAGGAGUGAUGUUCCGUUCAUCAUCAGAAUUAAAU [KL-XFMN-A3]")
"yes (1)"

Next sequence, please.
IN: Hello, I need to know if CAACCGUAACACGAUACCAGCCUAGAAGCCAGUGAUGUUGGCCUUUUUUCGGAAAUGAAAGGCCCUUGGCAGCGUGGAUAAAAUG [Lelabiised] has measured apparent KD of K4 kissing-loop reporter not below 200 nM. Thanks!
OUT: yes (1)

###

test system: MS2 coat protein; assay: apparent KD of MS2 coat protein; designed switch direction (-1 OFF switch, 1 ON switch): -1; higher = weaker reporter binding; settings: Eterna round: R95; input ligand: FMN 200 uM
Please enter Condition met where apparent KD of MS2 coat protein is greater than or equal to 80 nM, and Condition not met where it is lower.

For orientation, consider the following solved cases.
>>> answer_label("AAGUACUACAAGCUUCGGGACAUGAGGAUCACCCAUGUUCGUCUUAUUGAUCUAGGUACGCUGACGUACCUAGAUCU [Mat - Sensor v3 - turn-off var 1 - JL Mod - D11] (puzzle: Sensor v3, turn-off variant 1)")
"Condition not met"
>>> answer_label("AAAGAAGAGAGAAAAUAACACAUGAGGAUCACCCAUGUGAGAAGAUGAGGGUGAUACAGGCUAUAUGCUCGUCUUAU (puzzle: Sensor v3, turn-off variant 1)")
"Condition not met"
>>> answer_label("GUGAAGAAGUUAGUGGCCUACAUGAGGAUCACCCAUGUGAGGGAAAUGUCGAGGCGGAGGUUGUGUGCUCGUCUGUA [JR_SV3TOV1_Sub041] (puzzle: Sensor v3, turn-off variant 1)")
"Condition not met"
>>> answer_label("CGGUGCUGAGGAUAUACAUGAGGAUCACCCAUGUGUUCUUGCUAGCGUACUGGCAGAUGUAGAAGGCGGUACUG [JL-ex3-3.45 Brourd mod] (puzzle: Exclusion 3)")
"Condition met"
>>> answer_label("GCCAGAGCAGGAUAUUCAAUAUCACACAUGAGGAUCACCCAUGUCCAGCGAAAGCUGGAGGGAGAAGGGCUCUGGC [Fiskers Ex 5 - 12] (puzzle: Exclusion 5)")
"Condition not met"
>>> answer_label("AUACCAUGCCGCCUAAUAGCUUUUUGCUCGUCUUAUAAAACAUGAGGAUCACCCAUGUAAAACAUGUGGCGUGACCC [Maridi] (puzzle: Sensor v3, turn-off variant 2)")
"Condition met"

IN: Reported apparent KD of MS2 coat protein at or above 80 nM? AGAAAGGAAGGAUAUACAAGAAAGCCGGGCAACGUCUCAGAACAUGAGGAUCACCCAUGUAGAAGGUCCAGGAA [Tisoiste] (puzzle: Exclusion 2)
OUT: Condition met

IN: API: above_or_equal(metric=apparent KD of MS2 coat protein, cutoff=80 nM) for item CUCCUCAUGGCGCCUAAACACAUGAGGAUCACCCAUGUACAGGCCUUUUGCCGUCUUAUAAUAAAACCGAGGAUGCG [Lainxezabe] (puzzle: Sensor v3, turn-off variant 1)
OUT: Condition not met

IN: Assess whether reported apparent KD of MS2 coat protein for AUAAUUUAAGUGAGGAUAUACCUAUGGAAACAUAGGUAGAAGGCACAUGAGGAUCACCCAUGUUCCUAUACAAA [Fiskers BMX 4 - 1] (puzzle: Brourd's mod of Exclusion 4) sits at 80 nM or higher.
OUT: Condition not met
